- Tested on: Saccharomyces cerevisiae
- Measurement protocol: protein stability index of tFT-peptide fusion (C-terminal peptide) (PSI (0-1 scale)); higher = more stable (slower turnover)
- Run conditions: genetic background: das1 deletion; temperature: 30 C
Classification field: TRUE = protein stability index at or over 0.7; FALSE = protein stability index under 0.7.

[in] Record KLLIRFILLVNS [YPR130C C-terminal 12 aa] ; criterion: protein stability index no lower than 0.7. Met?
[out] FALSE

[in] Record FCLQCFKDYCYS [SPO1 C-terminal 12 aa] ; criterion: protein stability index no lower than 0.7. Met?
[out] FALSE

[in] Record SIYILNVIRNAQ [YGR117C C-terminal 12 aa] ; criterion: protein stability index no lower than 0.7. Met?
[out] FALSE

More entries:
[in] Record KGKLITKVNNEE [YML131W C-terminal 12 aa] ; criterion: protein stability index no lower than 0.7. Met?
[out] FALSE

[in] Record ITSYNFLGVPFK [YLR406C-A C-terminal 12 aa] ; criterion: protein stability index no lower than 0.7. Met?
[out] TRUE

[in] Record KAFVIGAIALVA [YMR317W C-terminal 12 aa] ; criterion: protein stability index no lower than 0.7. Met?
[out] FALSE

[in] Record FATFELAMRLLG [YMC1 C-terminal 12 aa] ; criterion: protein stability index no lower than 0.7. Met?
[out] FALSE

[in] Record QMRKNMTRTDEK [PKH1 C-terminal 12 aa] ; criterion: protein stability index no lower than 0.7. Met?
[out] FALSE

[in] Record PAAIKQAIASNV [TRX2 C-terminal 12 aa] ; criterion: protein stability index no lower than 0.7. Met?
[out] FALSE

[in] Record LYQCRMPCLYSI [YGL193C C-terminal 12 aa] ; criterion: protein stability index no lower than 0.7. Met?
[out] FALSE

[in] Record YEAKLSKRILRD [SCM3 C-terminal 12 aa] ; criterion: protein stability index no lower than 0.7. Met?
[out] TRUE

[in] Record FIYKRNKKFILN [YPQ1 C-terminal 12 aa] ; criterion: protein stability index no lower than 0.7. Met?
[out] TRUE

[in] Record VTFLVFANLRLW [YBR223W-A C-terminal 12 aa] ; criterion: protein stability index no lower than 0.7. Met?
[out] FALSE

---

Reported protein stability index is given for each of the following sequences.
- Test system: Saccharomyces cerevisiae
- Measurement protocol: protein stability index of tFT-peptide fusion (C-terminal peptide) (PSI (0-1 scale)); higher = more stable (slower turnover)
- Run conditions: genetic background: wild type; temperature: 30 C
# output: bare number, no unit

[in] Give protein stability index for the following sequence: FLLPRFDSAFPL
[out] 0.684

[in] Give protein stability index for the following sequence: SPPGYPGNPSPL
[out] 0.662

[in] Give protein stability index for the following sequence: KRRNKTNREDTM
[out] 0.68

[in] Give protein stability index for the following sequence: GCRSQRSDSLMM
[out] 0.644

[in] Give protein stability index for the following sequence: SSSEGNRGSLQY
[out] 0.774

[in] Give protein stability index for the following sequence: YKGKFTILESLK
[out] 0.665

More entries:
[in] Give protein stability index for the following sequence: FSAPPPPSPPLS
[out] 0.721

[in] Give protein stability index for the following sequence: PPLARLASPSRL
[out] 0.701

[in] Give protein stability index for the following sequence: CFCGGFGVFVIF
[out] 0.593

[in] Give protein stability index for the following sequence: VLLVRIFLCWVC
[out] 0.16

Origin of values: the supplement of paper PMC10724198
